Biological target: UniProtKB P04798
Sequence (P04798 whole entry): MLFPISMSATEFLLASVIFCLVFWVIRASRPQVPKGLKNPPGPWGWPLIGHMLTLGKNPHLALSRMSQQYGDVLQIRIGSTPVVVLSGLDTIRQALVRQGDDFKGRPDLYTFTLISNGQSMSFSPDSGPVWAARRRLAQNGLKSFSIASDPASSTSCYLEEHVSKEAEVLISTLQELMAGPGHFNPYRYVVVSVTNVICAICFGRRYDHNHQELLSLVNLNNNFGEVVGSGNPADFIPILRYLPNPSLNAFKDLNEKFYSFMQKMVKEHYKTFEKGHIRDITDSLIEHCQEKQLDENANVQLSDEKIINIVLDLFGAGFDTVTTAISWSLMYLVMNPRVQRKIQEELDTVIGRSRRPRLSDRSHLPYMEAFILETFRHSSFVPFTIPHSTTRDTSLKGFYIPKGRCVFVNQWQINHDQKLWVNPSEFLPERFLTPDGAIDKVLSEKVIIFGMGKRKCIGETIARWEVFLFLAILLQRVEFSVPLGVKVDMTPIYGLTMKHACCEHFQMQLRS
Assay: Inhibition of recombinant CYP1A1 (unknown origin) assessed as residual enzyme activity using 7-ethoxyresorufin as substrate at 100 uM incubated for 15 mins by resorufin dye based spectrofluorimetry (reference value: 100%)
Format: ADME
Details: recombinant CYP1A1, probe 7-ethoxyresorufin, read-out: Activity
Short version: activity at 0.25 h, 100 µM at least 40% is TRUE, less is FALSE.

>  <compound structure string>
Cc1ccc(-c2cc(C(N)=O)c3cc(Cl)ccc3n2)o1

>  <measured on>
UniProtKB P04798

>  <class>
TRUE

$$$$

Prompt: Given C[C@H](Oc1ccc(Cl)cc1)C(=O)Nc1sc2c(c1C(N)=O)CCCC2 , state whether its activity at 0.25 h, 100 µM is at least 40%.
Response: TRUE

Prompt: Could you please find out whether Cc1cc(C)cc(O[C@H](C)C(=O)Nc2ccc(F)c([N+](=O)[O-])c2)c1 has activity at 0.25 h, 100 µM that meets 40% or exceeds it?
Response: TRUE

Prompt: Please indicate if the recorded activity at 0.25 h, 100 µM for NC(=O)c1c(NC(=O)Cc2ccc(F)cc2)sc2c1CCCC2 meets or exceeds 40%.
Response: TRUE

Prompt: Does the reported activity at 0.25 h, 100 µM for Cc1ccc(-c2cc3cc(F)ccc3[nH]2)cc1N fall at or above the 40% mark?
Response: FALSE

Prompt: Exam item: decide whether the reported activity at 0.25 h, 100 µM for Cc1cc(C)n(C(=O)CNc2ccccc2Cl)n1 is at least 40%.
Response: TRUE
